Examples of binders with documented KD pH 5.5/pH 7.4 follow.
- Assay system: T1, human serum albumin (human, UniProt P02768 25-609)
- T1 construct: Immobilised on SPR chips; also added in solution in the FcRn occupancy assays; also called HSA; humanSA
- Method notes: SPR Biacore 8K+ SCK, albumin on chip, ratio of KD
Keep it simple and answer with nothing but the number.

{"columns": ["Binder", "Recorded result"],
 "data": [
  ["Alb23 G99A (VHH, VHH alone) VHH: EVQLLESGGGLVQPGGSLRLSCAASGFTFRSFGMSWVRQAPGKGPEWVSSISGSGSDTLYADSVKGRFTISRDNSKNTLYLQMNSLRPEDTAVYYCTIAGSLSRSSQGTLVTVSS", 0.43]
]}

INPUT: Which KD pH 5.5/pH 7.4 value is on record for Alb23 G100A (VHH, VHH alone) VHH: EVQLLESGGGLVQPGGSLRLSCAASGFTFRSFGMSWVRQAPGKGPEWVSSISGSGSDTLYADSVKGRFTISRDNSKNTLYLQMNSLRPEDTAVYYCTIGASLSRSSQGTLVTVSS ?
OUTPUT: 0.63

INPUT: GET /values?readout=KD pH 5.5/pH 7.4&item= Alb23 L59A (VHH, VHH alone) VHH: EVQLLESGGGLVQPGGSLRLSCAASGFTFRSFGMSWVRQAPGKGPEWVSSISGSGSDTAYADSVKGRFTISRDNSKNTLYLQMNSLRPEDTAVYYCTIGGSLSRSSQGTLVTVSS
OUTPUT: 0.56

INPUT: What value of KD pH 5.5/pH 7.4 has been recorded for this entry: Alb23 M34A (VHH, VHH alone) VHH: EVQLLESGGGLVQPGGSLRLSCAASGFTFRSFGASWVRQAPGKGPEWVSSISGSGSDTLYADSVKGRFTISRDNSKNTLYLQMNSLRPEDTAVYYCTIGGSLSRSSQGTLVTVSS
OUTPUT: 0.42

INPUT: KD pH 5.5/pH 7.4 lookup needed for Alb23 G33A/S101A (VHH, VHH alone) VHH: EVQLLESGGGLVQPGGSLRLSCAASGFTFRSFAMSWVRQAPGKGPEWVSSISGSGSDTLYADSVKGRFTISRDNSKNTLYLQMNSLRPEDTAVYYCTIGGALSRSSQGTLVTVSS , thanks.
OUTPUT: 0.47

Cited source: patent US20260152573A1
